Readings of mass density for the listed compounds
conditions: 323.15 K; 101 kPa; Liquid; Vibrating tube method
Numbers after ± are expanded uncertainties.
reportedProperty: mass density

compound	reportedProperty	result
OCCOCCO	mass density	1095.9 ± 0.5 kg/m3
CC(C)O	mass density	759.7 ± 0.4 kg/m3
OCCOCCOCCO	mass density	1101.1 ± 0.5 kg/m3
O=S1(=O)CCCC1	mass density	1245.2 ± 0.6 kg/m3
CCC(C)O (stereo not given)	mass density	781.7 ± 0.4 kg/m3

----------
Measured viscosity values are reported for all entries that follow.
conditions: 323.15 K; 101 kPa; Liquid; Concentric cylinders viscometry
reportedProperty: viscosity (mPa·s)

molecule	measuredNumber
OCCOCCOCCO [triethylene glycol]	13.3
O=S1(=O)CCCC1 [sulfolane]	6.45
OCCOCCO [diethylene glycol]	10.4
CC(C)O [propan-2-ol]	1.03
CCC(C)O (stereo not given) [butan-2-ol]	1.31

----------
conditions: 333.15 K; 101 kPa; Liquid; Concentric cylinders viscometry
Assign 1.0 whenever viscosity does not fall below 5 mPa·s; assign 0.0 whenever it does.

compound	class
CC(C)O	0.0
OCCOCCOCCO	1.0
O=S1(=O)CCCC1	1.0
OCCOCCO	1.0
CCC(C)O (stereo not given)	0.0

----------
details: 313.15 K; 101 kPa; Liquid; Vibrating tube method
reportedProperty: mass density (kg/m3)

compound	unitText	measuredNumber
CC(C)O [propan-2-ol]	kg/m3	768.8
OCCOCCO [diethylene glycol]	kg/m3	1103
CCC(C)O (stereo not given) [butan-2-ol]	kg/m3	790.7
OCCOCCOCCO [triethylene glycol]	kg/m3	1108.9
O=S1(=O)CCCC1 [sulfolane]	kg/m3	1254.1

----------
details: 333.15 K; 101 kPa; Liquid; Vibrating tube method
Quick list: mass density per entry.

molecule	unitText	mass density
CCC(C)O (stereo not given)	kg/m3	772.1
OCCOCCOCCO	kg/m3	1093.4
O=S1(=O)CCCC1	kg/m3	1236.6
OCCOCCO	kg/m3	1088.5
CC(C)O	kg/m3	750

----------
conditions: 343.15 K; 101 kPa; Liquid; Vibrating tube method
Output 1.0 for mass density not less than 1000 kg/m3; output 0.0 otherwise.

molecule	class
CCC(C)O (stereo not given)	0.0
O=S1(=O)CCCC1	1.0
OCCOCCO	1.0
CC(C)O	0.0
OCCOCCOCCO	1.0

----------
conditions: 313.15 K; 101 kPa; Liquid; Concentric cylinders viscometry
# label = 1 if viscosity >= 8 mPa·s else -1

compound	class
OCCOCCOCCO	1
CCC(C)O (stereo not given)	-1
CC(C)O	-1
OCCOCCO	1

----------
settings: 303.15 K; 101 kPa; Liquid; Concentric cylinders viscometry
± gives the expanded uncertainty stated by the source.
viscosity reference

compound	viscosity
O=S1(=O)CCCC1 [sulfolane]	10.4 ± 0.1 mPa·s
OCCOCCO [diethylene glycol]	22.5 ± 0.2 mPa·s
CC(C)O [propan-2-ol]	1.78 ± 0.02 mPa·s
OCCOCCOCCO [triethylene glycol]	29.5 ± 0.3 mPa·s
CCC(C)O (stereo not given) [butan-2-ol]	2.51 ± 0.02 mPa·s
